Data origin: patent US7396837B2

- Test system: SK-BR-3
- EXPERIMENT: SRB colorimetric cell growth inhibition assay, SK-BR-3
- Assay type: cell-based
- CONDITION_SET: SK-BR-3; total growth inhibition (cytostatic effect)
ATTRIBUTE_MEASURED: TGI SK-BR-3 (Molar)
Give just the numeric value; Molar need not be written.

Below, each entry is followed by its recorded TGI SK-BR-3 result.
[
  {
    "MOLECULE": "COc1cc(-c2c3c4cc(OC)c(OC(=O)[C@@H](N)Cc5ccccc5)cc4oc(=O)c3n3ccc4c(OC(=O)[C@@H](N)Cc5ccccc5)c(OC)c(OC)cc4c23)ccc1OC(=O)[C@@H](N)Cc1ccccc1 [Compound 31]",
    "VALUE_UNITS": "Molar",
    "MEASURED_RESULT": "7.62E−06"
  },
  {
    "MOLECULE": "COc1cc2ccn3c(c(-c4ccc(OC(=O)[C@@H](N)C(C)C)c(OC)c4)c4c5cc(OC)c(OC(=O)[C@@H](N)C(C)C)cc5oc(=O)c43)c2cc1OC [Compound 19]",
    "VALUE_UNITS": "Molar",
    "MEASURED_RESULT": "2.28E−06"
  },
  {
    "MOLECULE": "COc1cc2ccn3c(c(-c4ccc(OC(=O)[C@@H](N)Cc5ccccc5)c(OC)c4)c4c5cc(OC)c(OC(=O)[C@@H](N)Cc6ccccc6)cc5oc(=O)c43)c2cc1OC [Compound 13]",
    "VALUE_UNITS": "Molar",
    "MEASURED_RESULT": "1.13E−07"
  },
  {
    "MOLECULE": "COc1cc(-c2c3c4cc(OC)c(OC(=O)[C@@H](N)Cc5ccccc5)cc4oc(=O)c3n3ccc4c(OC(=O)[C@@H](N)Cc5ccccc5)c(OC)c(OC)cc4c23)ccc1OC(=O)[C@@H](N)Cc1ccccc1 [Compound 207]",
    "VALUE_UNITS": "Molar",
    "MEASURED_RESULT": "1.07E−06"
  },
  {
    "MOLECULE": "COc1cc2c(cc1O)oc(=O)c1c2c(-c2ccc(OC(=O)[C@H](C)N)c(OC)c2)c2c3cc(OC)c(O)cc3ccn21.Cl",
    "VALUE_UNITS": "Molar",
    "MEASURED_RESULT": "1.61E−06"
  },
  {
    "MOLECULE": "COc1cc(-c2c3c4cc(OC)c(OC(=O)[C@H](C)N)cc4oc(=O)c3n3ccc4c(OC(=O)[C@H](C)N)c(OC)c(OC)cc4c23)ccc1OC(=O)[C@H](C)N [Compound 191]",
    "VALUE_UNITS": "Molar",
    "MEASURED_RESULT": "3.66E−06"
  }
]

Request: Form field - read-out: TGI SK-BR-3; system: SK-BR-3; submitted item: `COc1cc(-c2c3c4cc(OC)c(OC(=O)[C@@H](N)C(C)C)cc4oc(=O)c3n3ccc4c(OC(=O)[C@@H](N)C(C)C)c(OC)c(OC)cc4c23)ccc1OC(=O)[C@@H](N)C(C)C`
Result: 3.83E−07

Request: Thanks! And COc1cc2ccn3c(c(-c4ccc(OC(=O)[C@@H](N)C(C)C)c(OC)c4)c4c5cc(OC)c(OC(=O)[C@@H](N)C(C)C)cc5oc(=O)c43)c2cc1OC [Compound 14] ?
Result: 9.88E−08

Request: Same again, this time with COc1cc(-c2c3c4cc(OC)c(OC(=O)[C@H](C)N)cc4oc(=O)c3n3ccc4c(OC(=O)[C@H](C)N)c(OC)c(OC)cc4c23)ccc1OC(=O)[C@H](C)N [Compound 16]
Result: 4.11E−07

Request: Also `COc1cc(-c2c3n(c4c(=O)oc5cc(OC(=O)[C@@H](N)C(C)C)c(OC)cc5c24)CCc2cc(OC(=O)[C@@H](N)C(C)C)c(OC)cc2-3)ccc1OC(=O)[C@@H](N)C(C)C` ?
Result: 2.61E−06
